The values you see were collected from PubChem BioAssay (Tox21).

assay: qHTS assay to identify small molecule antagonists of the sonic hedgehog signaling (Shh) pathway (AID 1259369); conditions: NIH/3T3 Gli1-Luc reporter, Shh antagonist, luminescence 24 h; series mostly up to 92.4 µM; further: nearly all actives have a fitted effect of over 45% in size
Results filed as inconclusive are left out. Calls of active or inactive are those of the source. The call rests on the fitted dose curve.
Choose one outcome from this list and give only that: active, inactive

compound | assigned-class
CCCN(CCC)c1c([N+](=O)[O-])cc(C(F)(F)F)c(N)c1[N+](=O)[O-] | active
Oc1ccc2c(c1)-c1ccccc1C2 | active
O=C(c1ccc(F)cc1)C1CCN(CCn2c(=O)[nH]c3ccccc3c2=O)CC1 | inactive
CCCCN(CCCC)C(=O)N(CCCC)CCCC | inactive
Cc1cc(C2CCCCC2)n(O)c(=O)c1 | active

Asked: Which outcome was assigned to O=C(O)c1ccc(Cl)c(Cl)c1 in this test?
Given back: inactive

Asked: Which outcome was assigned to O=C1C=CC(=O)N1 in this test?
Given back: active

Asked: Which outcome was assigned to CCCN(CCC)C(=O)C(CCC(=O)OCCCN1CCN(CCOC(=O)Cc2c(C)n(C(=O)c3ccc(Cl)cc3)c3ccc(OC)cc23)CC1)NC(=O)c1ccccc1 (configuration not stated) in this test?
Given back: active

Asked: Which outcome was assigned to O=c1cccccc1O in this test?
Given back: active

Asked: Which outcome was assigned to Cc1ccc2oc(CN(Cc3ccccc3)C(=O)Nc3c(F)cc(F)cc3F)c(-c3ccc(Cl)cc3)c2c1 in this test?
Given back: inactive
